biological target: T1, Human LILRB2 stably expressed on EL4 cells (EL4/LILRB2) (human, UniProt Q8N423 22-597); test: FACS on EL4/LILRB2 cells
T1 construct: also called EL4-LILRB2 cells; cell membrane human LILRB2
T1 sequence (Q8N423 22-597 limits assumed): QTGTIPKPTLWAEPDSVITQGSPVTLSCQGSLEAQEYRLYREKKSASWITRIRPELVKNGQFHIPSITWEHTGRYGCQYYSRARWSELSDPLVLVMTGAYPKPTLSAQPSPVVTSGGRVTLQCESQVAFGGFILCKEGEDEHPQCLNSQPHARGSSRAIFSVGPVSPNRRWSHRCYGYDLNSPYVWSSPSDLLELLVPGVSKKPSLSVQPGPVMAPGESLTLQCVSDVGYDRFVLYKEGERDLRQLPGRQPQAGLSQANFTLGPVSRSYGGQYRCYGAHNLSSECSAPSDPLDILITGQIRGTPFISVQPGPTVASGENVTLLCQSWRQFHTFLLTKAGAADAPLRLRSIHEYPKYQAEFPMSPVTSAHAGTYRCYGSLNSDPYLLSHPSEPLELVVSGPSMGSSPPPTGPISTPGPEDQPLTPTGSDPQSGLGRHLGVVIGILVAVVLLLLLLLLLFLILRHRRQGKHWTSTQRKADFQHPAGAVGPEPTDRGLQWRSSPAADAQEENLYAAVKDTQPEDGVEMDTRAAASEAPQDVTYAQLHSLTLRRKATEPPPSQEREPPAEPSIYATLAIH
Measured Attribute: TOP MFI (MFI)
Entry rule: numbers only, all in MFI.

Answered cases to consult:
Binder	Reported
hu043.03 (antibody, V domains shown, Humanized human IgG4 antibody with S228P in the constant region; also called hu043VH8 / hu043VL4) VH: QVQLQQSGAEVKKPGASVKLSCKASGYTFTSYWMYWVRQRPGQGLEWIGHINPSSGYTKYNQKFKDRATLTADTSTSTAYMELSSLRSEDTAVYYCARDPNWDNYWGQGTTVTVSS VL: DIVMTQSPSSLSASVGDRVSITCKASQDVSIAVAWYQQKPGKAPKLLIYSASYRYTGVPDRFSGSGSGTDFTFTISSLQPEDIATYYCQQHYSTPYTFGGGTKLEIK	46300
hu043.06 (antibody, V domains shown, Humanized human IgG4 antibody with S228P in the constant region; also called hu043VH8 / hu043VL2) VH: QVQLQQSGAEVKKPGASVKLSCKASGYTFTSYWMYWVRQRPGQGLEWIGHINPSSGYTKYNQKFKDRATLTADTSTSTAYMELSSLRSEDTAVYYCARDPNWDNYWGQGTTVTVSS VL: DIQMTQSPSSLSASVGDRVTITCKASQDVSIAVAWYQQKPGKAPKLLIYSASYRYTGVPSRFSGSGSGTDFTFTISSLQPEDIATYYCQQHYSTPYTFGGGTKLEIK	45700

# ---- query binder ----
get_value(item= hu043.02 (antibody, V domains shown, Humanized human IgG4 antibody with S228P in the constant region; also called hu043VH7 / hu043VL4) VH: QVQLVQSGAEVKKPGASVKVSCKASGYTFTSYWMYWVRQAPGQGLEWIGHINPSSGYTKYNQKFKDRVTMTADTSTSTVYMELSSLRSEDTAVYYCARDPNWDNYWGQGTTVTVSS VL: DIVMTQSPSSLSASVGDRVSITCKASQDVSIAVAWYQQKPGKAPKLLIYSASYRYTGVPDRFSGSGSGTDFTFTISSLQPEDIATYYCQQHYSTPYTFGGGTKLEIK , readout=TOP MFI) returns 45700
